- Test system: SNB-19
- Assay Name: NCI tumour cell line growth inhibition, 48 h
Activity calls are given as the source filed them. Cut-off read from the data, not from the text of the source: active = GI50 up to about 1.1 µM and inactive = higher.
Exercise: for every item that follows, state its recorded GI50.

COc1cc2c(cc1O)C1C(O)C(O)C=C3CCN(C2)C31 (stereo unspecified) : 1.39 µM (inactive)
N[C@H](Cc1ccc2oc3cc(=O)c4ccccc4c-3nc2c1)C(=O)O : 34.4 µM (inactive)
Nc1nc(SCc2ccccc2Cl)c2[nH]cnc2n1 : 70.1 µM (inactive)
CN(C)NC(=O)NC12CC3CC(CC(C3)C1)C2 : > 100 µM (inactive)
COC12c3ccccc3-c3ccccc3C1[C@@H](C(=O)O)[C@H]2C(=O)O (stereo partly specified) : > 10 µM (inactive)

Could I get GI50 for every one of these entries?
1. COc1cc2c(cc1OC)C1Cc3ccc(OC)c(OC)c3C[N+]1([O-])CC2 (stereo unspecified)
2. CC(C)=CCC1=C(OCC(=O)O)C(=O)c2ccccc2C1=O
3. CCCCCc1cc2cc3c(c(O)c2c(=O)[nH]1)C1(CCC3)C(=O)c2c(O)ccc(O)c2C1=O
4. C=CCc1oc(C)nc1CCCC
5. C=CCc1cc(OC)c2c(c1)C(OC(C)=O)CC(c1ccc(OC)c(OC)c1)O2 (stereo unspecified)
6. Cc1c2c(n(CCc3ccc(Cl)cc3)c1C)NN=C(C#N)S2(=O)=O

1: > 100 µM (inactive); 2: 27.9 µM (inactive); 3: > 100 µM (inactive); 4: 49.3 µM (inactive); 5: 49.4 µM (inactive); 6: > 100 µM (inactive)
